Some molecules, each annotated with its measured pIC50.
Target: Recombinant full length human OGA enzyme (Homo sapiens, UniProt O60502)
Construct: Recombinant full length human OGA enzyme was purchased from Origene
Sequence (O60502 whole entry): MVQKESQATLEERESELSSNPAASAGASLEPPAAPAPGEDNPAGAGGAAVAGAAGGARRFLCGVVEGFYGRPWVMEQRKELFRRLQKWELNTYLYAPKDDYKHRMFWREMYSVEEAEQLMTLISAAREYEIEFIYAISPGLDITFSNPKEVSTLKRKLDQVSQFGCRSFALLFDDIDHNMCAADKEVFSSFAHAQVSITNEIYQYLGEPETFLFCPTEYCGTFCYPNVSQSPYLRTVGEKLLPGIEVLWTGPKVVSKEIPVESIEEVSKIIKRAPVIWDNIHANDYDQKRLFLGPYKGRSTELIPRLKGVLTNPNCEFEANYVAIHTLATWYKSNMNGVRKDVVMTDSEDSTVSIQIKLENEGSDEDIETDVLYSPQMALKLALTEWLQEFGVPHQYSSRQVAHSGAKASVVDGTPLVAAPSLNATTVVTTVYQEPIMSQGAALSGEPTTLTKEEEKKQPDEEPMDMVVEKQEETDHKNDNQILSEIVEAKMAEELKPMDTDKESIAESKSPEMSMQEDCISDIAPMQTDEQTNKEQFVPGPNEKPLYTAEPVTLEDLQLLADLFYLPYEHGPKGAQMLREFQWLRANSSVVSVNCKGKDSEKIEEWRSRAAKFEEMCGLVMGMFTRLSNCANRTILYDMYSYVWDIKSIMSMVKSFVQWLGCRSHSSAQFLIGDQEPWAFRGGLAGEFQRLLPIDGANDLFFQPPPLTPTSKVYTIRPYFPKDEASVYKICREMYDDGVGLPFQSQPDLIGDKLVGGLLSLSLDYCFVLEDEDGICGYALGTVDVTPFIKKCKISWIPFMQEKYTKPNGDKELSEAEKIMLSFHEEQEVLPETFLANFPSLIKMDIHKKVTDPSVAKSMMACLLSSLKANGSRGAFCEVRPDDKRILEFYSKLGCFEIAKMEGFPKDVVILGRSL
Assay details: OGA enzyme inhibition biochemical assay
Assay conditions: 1 nM OGA, 100 μM 4-MUGlcNAc (Km), pH 6.4, 90 minutes at room temperature, 10-point dose-response from 20 μM
pIC50: −log10 of the molar value.

// below: answered molecules
- CC(=O)Nc1nc(F)c(CN2C[C@H](Oc3ccn4nncc4c3)C[C@@H]2C)s1: > 9.00
- COc1cc2cnc(O[C@@H]3C[C@H](C)N(Cc4sc(NC(C)=O)nc4F)C3)cc2cc1F: > 9.00
- CC(=O)Nc1nc(F)c(CN2C[C@H](Oc3nccn4ccnc34)C[C@@H]2C)s1: > 9.00
- CC(=O)Nc1ncc(CN2C[C@H](Oc3cc4ccccc4nc3C#N)C[C@@H]2C)s1: 8.01
- CC(=O)Nc1ncc(CN2C[C@H](Oc3nccn4nc(C(F)(F)F)cc34)C[C@@H]2C)s1: 8.27

Quick note, pIC50 for `CC(=O)Nc1ncc(CN2C[C@H](Oc3nc4c(cc3C#N)CCCC4)C[C@@H]2C)s1` landed at 7.96

Quick note, pIC50 for `CC(=O)Nc1ncc(CN2C[C@H](Oc3ccc4ccc(F)cc4n3)C[C@@H]2C)s1` landed at > 9.00

Quick note, pIC50 for `CC(=O)Nc1ncc(CN2C[C@H](Oc3cc(C)nc4ccccc34)C[C@@H]2C)s1` landed at > 9.00

Quick note, pIC50 for CC(=O)Nc1ncc(CN2C[C@H](Oc3nccc4occc34)C[C@@H]2C)s1 [Example 69] landed at 8.57

Quick note, pIC50 for `CC(=O)Nc1nc(F)c(CN2C[C@H](Oc3ccc4cn(C)nc4c3)C[C@@H]2C)s1` landed at > 9.00

Quick note, pIC50 for `CC(=O)Nc1ncc(CN2C[C@H](Oc3ccc4ccnn4c3)C[C@@H]2C)s1` landed at > 9.00

---

Target: Recombinant full length human OGA enzyme (Homo sapiens)
Construct: Recombinant full length human OGA enzyme was purchased from Origene
Assay details: OGA enzyme inhibition biochemical assay
Assay conditions: 1 nM OGA, 100 μM 4-MUGlcNAc (Km), pH 6.4, 90 minutes at room temperature, 10-point dose-response from 20 μM
Some molecules, each annotated with its measured IC50.

// below: answered molecules
• CC(=O)Nc1ncc(CN2C[C@H](Oc3ccn4nccc4c3)C[C@@H]2C)s1 = < 1 nM
• COc1cccn2nc(O[C@@H]3C[C@H](C)N(Cc4sc(NC(C)=O)nc4F)C3)nc12 = < 1 nM
• CC(=O)Nc1ncc(CN2C[C@H](Oc3nccc4nccn34)C[C@@H]2C)s1 = < 1 nM

Quick note, IC50 for `CC(=O)Nc1ncc(CN2C[C@H](Oc3ccnc4ccsc34)C[C@@H]2C)s1` landed at < 1 nM

Quick note, IC50 for `CC(=O)Nc1ncc(CN2C[C@H](Oc3ccnc4ccc(C)cc34)C[C@@H]2C)s1` landed at 2.4 nM

Quick note, IC50 for `CC(=O)Nc1nc(F)c(CN2C[C@H](Oc3cnc4c(ccn4C)n3)C[C@@H]2C)s1` landed at < 1 nM

Quick note, IC50 for `CC(=O)Nc1ncc(CN2C[C@H](Oc3cc4cn(C)nc4cn3)C[C@@H]2C)s1` landed at < 1 nM

Quick note, IC50 for `CC(=O)Nc1ncc(CN2C[C@H](Oc3nccc4ccccc34)C[C@@H]2C)s1` landed at 4.5 nM
